experimental-system: T1, SNAP25 Peptide 2 (PEP2) (Homo sapiens, UniProt P60880 SEQ:1-37)
T1 chain: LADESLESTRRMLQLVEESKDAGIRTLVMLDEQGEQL
run-description: ELONA
Assign binding signal to each entry below.
State the value, then name its unit.

// known answers, use as guide
binder	reported-property	recorded-result
PEP 2.14 (ssDNA, W indole, X amine, Y phenol modified dU [17,19,24]) DNA: TTTTTAAGCCCACGGGTCTGTGGTCACCGAACGACGTGGCAGTGGGCCCATG	binding signal	36 ELISA signal
PEP 2.02 (ssDNA, W indole, X amine, Y phenol modified dU [15,19,20,24,27,34,35,43,46]) DNA: TTTTTAAGCCCACATACGTTCGATGGTCACAGATTGGGCAAGTCGTGCCATG	binding signal	394 ELISA signal

Proceed to the following item.
[ask] Entry PEP 2.16 (ssDNA, W indole, X amine, Y phenol modified dU [15,19,20,24,27,35,38]) DNA: TTTTTAAGCCCACATAGGTTCGGTGGTCACAGTGTGGTGCGGTGGGCCCATG has what binding signal?
[reply] 31 ELISA signal

Data origin: patent US20220064648
